Cited source for all entries: ChEMBL document CHEMBL1126510

# reported IC50; entries follow
- System: NIH3T3
- Method Notes: Inhibitory concentration against growth of vis-sis transformed NIH 3T3 cells with inositol
- Assay type: functional, cell-based
- Measurement Setup: Mus musculus
Measured Metric: IC50 (mM)

INSERT INTO assay_data (compound, output_unit, experimental_result) VALUES
  ('OC1C(O)C(O)C(CI)C(O)C1O (configuration not stated)', 'mM', 56.2),
  ('OCC1C(O)C(O)C(O)C(O)C1O (configuration not stated)', 'mM', 5.5);
